B1: Myocardin-related transcription factor A, residues 341 to 383; numbered along this chain, Q969V6 (parent)
chain: GALPANLDDMKVAELKQELKLRSLPVSGTKTELIERLRAYQDQ

# Variants of: B1
# assay_name: abundance fitness (aPCA) (normalised: wild type 0, dead -1); higher = more abundant; growth selection in yeast, the domain comes from the species named
# condition_set: Homo sapiens
// 0.0 strictly below -0.1 in abundance fitness; 1.0 otherwise

S27W; 0.0
P25S; 0.0
L33N; 1.0
G28E; 0.0
S23C; 1.0

**Query** Kindly determine if abundance fitness recorded for D42H is above or exactly -0.1.
**Result** 0.0

**Query** Field entry: K30S
**Result** 0.0

**Query** Field entry: L24A
**Result** 0.0

**Query** Field entry: R38P
**Result** 0.0

**Query** Field entry: A39F
**Result** 0.0

**Query** Field entry: R38T
**Result** 0.0
